biological target: biotinylated truncated STAT6 (123-632)-avi (Homo sapiens); construct: biotinylated truncated STAT6 (123-632)-avi purified from E. coli; made in house; host or cells: E. coli; assay: STAT6 HTRF binding assay; conditions: 0.15 nM biotinylated truncated STAT6 (123-632)-avi, 20 nM fluorescein-labeled probe, 30 minutes at room temperature
ENDPOINT_NAME: IC50

INSERT INTO assay_data (compound, result) VALUES
  ('CN(C)C(=O)c1cc2c(F)c(C3CCCN(C(=O)CCn4cccn4)C3)cc(-c3ccc(N4CCN(CCc5ccc(C6CCC(=O)NC6=O)c(Cl)c5)CC4)cc3)c2o1 (single isomer, unassigned)', '0.1 to 1 µM');

###

molecular target: biotinylated truncated STAT6 (123-632)-avi (Homo sapiens, UniProt P42226); construct: biotinylated truncated STAT6 (123-632)-avi purified from E. coli; made in house; host or cells: E. coli; test: STAT6 HTRF binding assay; conditions: HTRF binding, 0.15 nM biotinylated truncated STAT6 (123-632)-avi, 20 nM fluorescein-labeled probe
Sequence (P42226 123-632 limits assumed): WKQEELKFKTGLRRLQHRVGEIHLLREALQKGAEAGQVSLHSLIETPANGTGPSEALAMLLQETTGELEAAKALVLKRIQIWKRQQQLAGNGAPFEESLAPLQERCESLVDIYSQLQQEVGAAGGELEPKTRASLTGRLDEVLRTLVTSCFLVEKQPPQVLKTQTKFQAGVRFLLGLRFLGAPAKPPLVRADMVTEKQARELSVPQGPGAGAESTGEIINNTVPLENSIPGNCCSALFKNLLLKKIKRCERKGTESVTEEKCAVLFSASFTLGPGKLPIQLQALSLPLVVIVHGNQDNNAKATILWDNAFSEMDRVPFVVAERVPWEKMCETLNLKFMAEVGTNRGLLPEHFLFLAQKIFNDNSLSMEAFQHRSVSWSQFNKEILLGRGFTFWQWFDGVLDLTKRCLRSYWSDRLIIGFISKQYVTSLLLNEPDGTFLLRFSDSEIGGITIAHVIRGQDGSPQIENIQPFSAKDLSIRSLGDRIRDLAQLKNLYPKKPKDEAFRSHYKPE
pIC50: −log10 of the molar value.
Catalogue of compounds with associated pIC50
ENDPOINT_NAME: pIC50

INSERT INTO results (compound, endpoint_name, result) VALUES
  ('COc1cc(N2CCN(c3ccc(-c4cc(C5=CCCN(C(=O)CCn6cccn6)C5)c(F)c5[nH]c(C(=O)N(C)C)cc45)c(F)c3F)CC2)c(F)cc1NC1CCC(=O)NC1=O (stereo not drawn)', 'pIC50', '> 7.00'),
  ('COc1cc(N2CCC(c3ccc(-c4cc(C5=CCCN(C(=O)CCn6cccn6)C5)c(F)c5[nH]c(C(=O)N(C)C)cc45)c(OC(F)(F)F)c3)CC2)c(F)cc1N[C@H]1CCC(=O)NC1=O (single isomer, unassigned)', 'pIC50', '> 7.00'),
  ('CN(C)C(=O)c1cc2c(-c3ccc(C4CCN(c5ccc([C@@H]6CCC(=O)NC6=O)cc5F)CC4)cc3)cc(C3=CCCN(C(=O)CCn4cccn4)C3)c(F)c2[nH]1 (single isomer, unassigned)', 'pIC50', '> 7.00'),
  ('CN(C)C(=O)c1cc2c(-c3ccc(C4CCN(c5ccc(C6CCC(=O)NC6=O)cc5F)CC4)cc3)cc(C3=CCCN(C(=O)CCn4ccnn4)C3)c(F)c2[nH]1 (single isomer, unassigned) [Example I-1439]', 'pIC50', '> 7.00'),
  ('CN(C)C(=O)c1cc2c(-c3ccc(C4CCN(c5ccc([C@H]6CCC(=O)NC6=O)cc5F)CC4)cc3)cc(C3=CCCN(C(=O)CCn4cccn4)C3)c(F)c2[nH]1 (single isomer, unassigned)', 'pIC50', '> 7.00'),
  ('COc1cc(N2CCN(c3ccc(-c4cc(C5=CCCN(C(=O)CCn6cccn6)C5)c(F)c5[nH]c(C(=O)N(C)C)cc45)cc3)CC2)c(F)cc1N[C@H]1CCC(=O)NC1=O (single isomer, unassigned)', 'pIC50', '> 7.00'),
  ('COc1cc(N2CCN(c3ccc(-c4cc(C5=CCCN(C(=O)CCn6cccn6)C5)c(F)c5[nH]c(C(=O)N(C)C)cc45)c(F)c3F)CC2)c(F)cc1N[C@@H]1CCC(=O)NC1=O (single isomer, unassigned)', 'pIC50', '> 7.00'),
  ('CN(C)C(=O)c1cc2c(-c3ccc(C4CCN(c5ccc(N[C@@H]6CCC(=O)NC6=O)cc5F)CC4)cc3)cc(C3=CCCN(C(=O)CCn4cccn4)C3)c(F)c2[nH]1 (single isomer, unassigned)', 'pIC50', '> 7.00'),
  ('CN(C)C(=O)c1cc2c(-c3ccc(C4CCN(c5ccc(N[C@H]6CCC(=O)NC6=O)cc5F)CC4)cc3)cc(C3=CCCN(C(=O)CCn4cccn4)C3)c(F)c2[nH]1 (single isomer, unassigned)', 'pIC50', '> 7.00'),
  ('CC(=O)N1CCC=C(c2cc(-c3ccc(C4CCN(c5cccc6c5n(C)c(=O)n6C5CCC(=O)NC5=O)CC4)cc3C)c3cc(C(=O)N(C)C)[nH]c3c2F)C1 (stereo not drawn)', 'pIC50', '5.00 to 6.00'),
  ('Cc1cc(C2CCN(c3cccc4c3n(C)c(=O)n4[C@H]3CCC(=O)NC3=O)CC2)ccc1-c1cc(C2=CCCN(C(=O)C(C)C)C2)c(F)c2[nH]c(C(=O)N(C)C)cc12 (single isomer, unassigned)', 'pIC50', '5.00 to 6.00'),
  ('CN(C)C(=O)c1cc2c(-c3ccc(C4CCN(c5ccc([C@@H]6CCC(=O)NC6=O)cc5F)CC4)cc3)cc(C3=CCCN(C(=O)CCn4ccnn4)C3)c(F)c2[nH]1 (single isomer, unassigned)', 'pIC50', '> 7.00'),
  ('COc1cc(N2CCN(CCCCCCCCN(C(=O)[C@H]3CCCN(c4cncc5ccccc45)C3)c3ccc(=O)n(CC(=O)O)c3)CC2)ccc1-c1cc(C2=CCCN(C(=O)CCn3ccnn3)C2)c(F)c2[nH]c(C(=O)N(C)C)cc12', 'pIC50', '> 7.00'),
  ('Cc1nn(C2CCC(=O)NC2=O)c2cccc(CCN3CCN(c4cc(Cl)c(-c5cc(C6=CCCN(C(=O)CCn7cccn7)C6)c(F)c6[nH]c(C(=O)N(C)C)cc56)cc4F)CC3)c12 (single isomer, unassigned)', 'pIC50', '> 7.00'),
  ('Cc1cc(C2CCN(c3cccc4c3n(C)c(=O)n4[C@@H]3CCC(=O)NC3=O)CC2)ccc1-c1cc(C2=CCCN(C(=O)C(C)C)C2)c(F)c2[nH]c(C(=O)N(C)C)cc12 (single isomer, unassigned)', 'pIC50', '5.00 to 6.00'),
  ('COc1cc(N2CCC(c3ccc(-c4cc(C5=CCCN(C(=O)CCn6cccn6)C5)c(F)c5[nH]c(C(=O)N(C)C)cc45)c(OC(F)(F)F)c3)CC2)c(F)cc1N[C@@H]1CCC(=O)NC1=O (single isomer, unassigned)', 'pIC50', '> 7.00'),
  ('CN(C)C(=O)c1cc2c(-c3ccc(C4CCN(c5ccc(C6CCC(=O)NC6=O)cc5F)CC4)cc3)cc(C3=CCCN(C(=O)CCn4cccn4)C3)c(F)c2[nH]1 (stereo not drawn)', 'pIC50', '> 7.00'),
  ('Cc1nn([C@H]2CCC(=O)NC2=O)c2cccc(CCN3CCN(c4cc(Cl)c(-c5cc(C6=CCCN(C(=O)CCn7cccn7)C6)c(F)c6[nH]c(C(=O)N(C)C)cc56)cc4F)CC3)c12 (single isomer, unassigned)', 'pIC50', '> 7.00');

###

Item-by-item account of DC50
molecular target: STAT6-HiBiT (Homo sapiens); construct: Degradation of STAT6 in endogenously tagged STAT6-HiBiT A549 cells; endogenous in cells; host or cells: A549 (STAT6-HiBiT) knock-in cells; assay: STAT6 HiBiT degradation in A549 (STAT6-HiBiT) cells; format: cell-based; conditions: 24 h
Sequence (P42226 whole entry): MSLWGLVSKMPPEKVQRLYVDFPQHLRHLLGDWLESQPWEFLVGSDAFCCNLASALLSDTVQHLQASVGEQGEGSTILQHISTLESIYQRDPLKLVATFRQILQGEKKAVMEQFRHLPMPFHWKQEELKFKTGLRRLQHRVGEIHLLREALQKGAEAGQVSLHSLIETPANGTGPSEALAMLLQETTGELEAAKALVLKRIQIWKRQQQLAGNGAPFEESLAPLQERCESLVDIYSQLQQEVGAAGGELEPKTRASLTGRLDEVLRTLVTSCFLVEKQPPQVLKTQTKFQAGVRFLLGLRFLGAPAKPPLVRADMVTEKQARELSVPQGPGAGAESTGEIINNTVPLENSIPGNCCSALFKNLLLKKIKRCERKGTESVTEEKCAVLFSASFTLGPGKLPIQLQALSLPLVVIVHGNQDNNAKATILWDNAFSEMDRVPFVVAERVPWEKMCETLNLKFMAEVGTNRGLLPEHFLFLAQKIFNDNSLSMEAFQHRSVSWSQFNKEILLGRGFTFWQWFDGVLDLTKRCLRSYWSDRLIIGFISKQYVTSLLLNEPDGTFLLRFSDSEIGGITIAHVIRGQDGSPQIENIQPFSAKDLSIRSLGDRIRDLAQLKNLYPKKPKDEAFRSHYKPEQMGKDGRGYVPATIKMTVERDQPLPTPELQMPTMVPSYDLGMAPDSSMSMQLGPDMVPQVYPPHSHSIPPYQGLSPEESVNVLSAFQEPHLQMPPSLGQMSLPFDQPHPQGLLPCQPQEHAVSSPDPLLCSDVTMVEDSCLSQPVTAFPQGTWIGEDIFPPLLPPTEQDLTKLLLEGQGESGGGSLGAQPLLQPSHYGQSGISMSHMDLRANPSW
ENDPOINT_NAME: DC50

INSERT INTO measurements (compound, assayed_system, result) VALUES
  ('CN(C)C(=O)c1cc2c(-c3ccc(C4CCN(c5ccc(C6CCC(=O)NC6=O)cc5F)CC4)cc3)cc(C3=CCCN(C(=O)CCn4ccnn4)C3)c(F)c2[nH]1 (stereo not drawn) [Example I-1015]', 'STAT6-HiBiT (Homo sapiens)', '< 1 nM'),
  ('Cc1nn(C2CCC(=O)NC2=O)c2cccc(CCN3CCN(c4cc(Cl)c(-c5cc(C6=CCCN(C(=O)CCn7cccn7)C6)c(F)c6[nH]c(C(=O)N(C)C)cc56)cc4F)CC3)c12 (single isomer, unassigned) [Example I-1079]', 'STAT6-HiBiT (Homo sapiens)', '< 1 nM'),
  ('CN(C)C(=O)c1cc2c(-c3ccc(C4CCN(c5ccc([C@@H]6CCC(=O)NC6=O)cc5F)CC4)cc3)cc(C3=CCCN(C(=O)CCn4ccnn4)C3)c(F)c2[nH]1 (single isomer, unassigned) [Example I-1438]', 'STAT6-HiBiT (Homo sapiens)', '< 1 nM'),
  ('COc1cc(N2CCN(c3ccc(-c4cc(C5=CCCN(C(=O)CCn6cccn6)C5)c(F)c5[nH]c(C(=O)N(C)C)cc45)c(F)c3F)CC2)c(F)cc1NC1CCC(=O)NC1=O (stereo not drawn) [Example I-677]', 'STAT6-HiBiT (Homo sapiens)', '< 1 nM'),
  ('CN(C)C(=O)c1cc2c(-c3ccc(C4CCN(c5ccc(C6CCC(=O)NC6=O)cc5F)CC4)cc3)cc(C3=CCCN(C(=O)CCn4ccnn4)C3)c(F)c2[nH]1 (single isomer, unassigned) [Example I-1439]', 'STAT6-HiBiT (Homo sapiens)', '< 1 nM'),
  ('Cc1nn([C@H]2CCC(=O)NC2=O)c2cccc(CCN3CCN(c4cc(Cl)c(-c5cc(C6=CCCN(C(=O)CCn7cccn7)C6)c(F)c6[nH]c(C(=O)N(C)C)cc56)cc4F)CC3)c12 (single isomer, unassigned) [Example I-1078]', 'STAT6-HiBiT (Homo sapiens)', '< 1 nM');
